meta.source: the RNAGym collection of RNA variant scans (doi:10.7554/elife.80360)

Recorded self-cleavage for the following variants
B1: HDV Ribozyme (parent)
chain: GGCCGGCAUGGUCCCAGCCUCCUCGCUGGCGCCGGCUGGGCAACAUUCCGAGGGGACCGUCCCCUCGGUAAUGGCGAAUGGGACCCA

- Variants of: B1
- experimental_details: self-cleavage, relative activity (ratio to wild type); higher = more cleavage; co-transcriptional
When you answer, write just the number.

GGCCGGCAUGGUCCCAACCUCCUCGCUGGCGCCGGCUGGGCAACAUUCCGAGGGGACCGUCCCCUCGGUAAUGGCGAAUGGGACUCA :: 0.641

We now examine a further variant.
Reported self-cleavage, variant `GGCCGGCAUGGUCCGACCCUCCUCGCUGGCGCCGGCUGGGCAACAUUCCGAGGGGACCGUCCCCUCGGUAAUGGCGAAUGGGACCCA` : ____
0.0875
